Test system: L1210 leukemia ip in BDF1 mice, survival T/C
Protocol: NCI In Vivo Anticancer Drug Screen. Data for tumor model L1210 Leukemia (intraperitoneal) in B6D2F1 (BDF1) mice
Condition Label: endpoint: mean survival time; dose: 75.0 mg/kg/injection; schedule: Q01DX001 (ip); vehicle: carboxymethylcellulose (CMC)
Inconclusive results and toxic doses are left out. Cut-off read from the data, not from the text of the source: active = T/C of 150% or more; inactive = T/C below 125%.
Pick one: 1 (active), 0 (inactive)

Fill in: this test's call for `O=[N+]([O-])c1cc(Cl)c(O)c([N+](=O)[O-])c1O` is ___
0

Would you kindly repeat that for `Cc1ccccc1NC(=O)N(C)N` ?
0

Queued: `CCCCc1ccc(NC(=O)N(CCCl)N=O)cc1`
1

Next entry: `CC(=O)OCc1ccc(/C=N/N2C(=O)CSC2=S)o1`
0

Now give it for CC1CCC(C(O)(C(=O)O)C2CCCCC2)CC1C (stereo not given) too.
0

---

Test system: L1210 leukemia ip in BDF1 mice, survival T/C
Protocol: NCI In Vivo Anticancer Drug Screen. Data for tumor model L1210 Leukemia (intraperitoneal) in B6D2F1 (BDF1) mice
Condition Label: endpoint: mean survival time; dose: 100.0 mg/kg/injection; schedule: Q01DX009 (ip); vehicle: saline sonified; higher = longer survival
Inconclusive results and toxic doses are left out.
Could you please report measured T/C for the items listed next?

What value of measured T/C is listed for `c1ccc(/C(N=NC(c2ccccc2)(c2ccccc2)c2ccccc2)=C(/N=NC(c2ccccc2)(c2ccccc2)c2ccccc2)c2ccccc2)cc1` ?
94 % of control

Input `CCO/C=C1\SC(=S)N(c2ccco2)C1=O`
98 % of control

`CCNc1nc(Cl)nc(NCC)n1` ?
98 % of control

Here is the next compound: `CCO/C=C1\SC(=S)N(c2ccc(C(=O)O)cc2)C1=O`
97 % of control

---

Tested on: L1210 leukemia ip in BDF1 mice, survival T/C
Protocol: NCI In Vivo Anticancer Drug Screen. Data for tumor model L1210 Leukemia (intraperitoneal) in B6D2F1 (BDF1) mice
Condition Label: endpoint: mean survival time; dose: 200.0 mg/kg/injection; schedule: Q01DX009 (ip); vehicle: Klucel (hydroxypropylcellulose) (HPC); higher = longer survival
Inconclusive results and toxic doses are left out.
Endpoint: T/C

Consider the molecule O=C(O)C1C(c2ccccc2)=C1c1ccc(Br)cc1 (configuration not stated) and give its measured T/C.
118 % of control

Also `Cc1ccc([N+](=O)[O-])cc1NC(=O)Nc1cccc2c(O)cccc12` ?
100 % of control

Moving on to the next molecule: `CCCCCCCCCCCCCCCCCC(=O)Oc1ccc(OCc2ccccc2)cc1`
95 % of control

How about this molecule: OC(CN1CCOCC1)c1ccccc1 (configuration not stated)
95 % of control

For Cc1ccc(S(=O)(=O)N2CCCC2CO)cc1 (configuration not stated) then?
101 % of control

What about CCOC(=O)/C(C)=C\C1C(C)=CCCC1(C)C (configuration not stated) ?
102 % of control

And for `NS(=O)(=O)c1ccc(NC(=O)Nc2ccc(Cl)cc2[N+](=O)[O-])cc1` ?
91 % of control

# iterate: `CCCCN1C(=O)C/C(=C2\CC(=O)N(CCCC)C2=O)C1=O`
94 % of control

How about `COc1ccc(OC)c(NC(=O)Oc2ccc3c(C)cc(=O)oc3c2)c1` ?
97 % of control

Now consider `C=CCNC(=S)NCc1cccc2ccccc12` and answer again.
111 % of control

Same question for `COc1cc(NC(=O)Nc2ccc(Cl)cc2[N+](=O)[O-])c(OC)cc1Cl` please.
94 % of control

Now this one: CC(=O)NC(C)Cc1ccc2c(c1)OCO2 (configuration not stated)
107 % of control

---

System: L1210 leukemia ip in BDF1 mice, survival T/C
Protocol: NCI In Vivo Anticancer Drug Screen. Data for tumor model L1210 Leukemia (intraperitoneal) in B6D2F1 (BDF1) mice
Condition Label: endpoint: mean survival time; dose: 25.0 mg/kg/injection; schedule: Q01DX009 (ip); vehicle: saline; higher = longer survival
Toxic doses and inconclusive results are not listed.
Provide the recorded T/C for the entries that follow.

Please tell me: T/C of O=C1CCC(c2ccccc2)(C2CCN(Cc3ccc(F)cc3)CC2)C(=O)N1 (centres undefined) , system L1210 leukemia ip in BDF1 mice, survival T/C?
102 % of control

# repeat for COC(=O)C1=COC(C)C(C=O)C1CC(=O)O (centres undefined)
103 % of control

Try this molecule too: CC(=O)OC(CC(O)(C(F)(F)F)C(F)(F)F)C(C)(C)C (centres undefined)
104 % of control

Now give it for `OCC1CC[N-]CC1.OCC1CC[N-]CC1.[Cl][Pt+2]([Cl])([Cl])[Cl]` too.
94 % of control

---

Test system: L1210 leukemia ip in BDF1 mice, survival T/C
Protocol: NCI In Vivo Anticancer Drug Screen. Data for tumor model L1210 Leukemia (intraperitoneal) in B6D2F1 (BDF1) mice
Condition Label: endpoint: mean survival time; dose: 100.0 mg/kg/injection; schedule: Q01DX001 (ip); vehicle: saline with Tween-80; higher = longer survival
Toxic doses and inconclusive results are not listed.
Give T/C for every item shown.

Entry CCC(Cl)COP(=O)(OCC(Cl)CC)OC(c1ccc(Cl)c(Cl)c1)P(=O)(OCC(Cl)CC)OCC(Cl)CC (configuration not stated) : reported T/C = ?
103 % of control

Now the same for `O=C(Nc1ccc(F)cc1)Nc1ccc(Cl)cc1[N+](=O)[O-]`
100 % of control

Item: `CSc1ccccc1C=Nc1ccccc1O`
101 % of control

Input `CCOCN1CCCC1`
104 % of control

Proceed to COC1OC2COC(c3ccccc3)OC2C(O)C1NC(C)=O (configuration not stated)
101 % of control

Subsequent entry: `c1ccc(N/N=C2/CSCc3ccccc32)cc1`
97 % of control

# iterate: CC(CNC(=O)OCc1ccccc1)C(=O)O (configuration not stated)
95 % of control

Also O=C(NC(Cc1ccccc1)C(=O)CBr)OCc1ccccc1 (configuration not stated) ?
103 % of control

Same thing, different compound: `CC[n+]1ccc(Nc2ccc(NC(=O)c3ccc([N+](=O)[O-])cc3)cc2)cc1`
100 % of control

Proceed to N#CC(/C=C/c1ccccc1)Nc1ccccc1N (configuration not stated)
91 % of control

Same question for `O=C(COc1ccccc1)NCCNC(=S)Nc1ccccc1` please.
102 % of control

And then `CS(=O)(=O)CC(=O)c1ccc(O)cc1O` , what is it?
106 % of control

---

Test system: L1210 leukemia ip in BDF1 mice, survival T/C
Protocol: NCI In Vivo Anticancer Drug Screen. Data for tumor model L1210 Leukemia (intraperitoneal) in B6D2F1 (BDF1) mice
Condition Label: endpoint: mean survival time; dose: 400.0 mg/kg/injection; schedule: Q01DX001 (ip); vehicle: carboxymethylcellulose (CMC); higher = longer survival
Toxic doses and inconclusive results are not listed.
Endpoint: T/C

Form field: T/C recorded for `CC(C)COC(=O)c1ccc(NC(=O)Nc2ccc(F)cc2)cc1` with L1210 leukemia ip in BDF1 mice, survival T/C (enter value)
96 % of control

Try the compound `FC1C(F)(F)C(F)(F)C(F)(F)C(F)(F)C1(F)F`
96 % of control

Now the compound `CC(=O)Nc1ccc(Cc2ccccc2)cc1[N+](=O)[O-]`
97 % of control

Also need OC1OCC(OCc2ccccc2)C(OCc2ccccc2)C1OCc1ccccc1 (stereo unspecified) , thanks.
95 % of control

Then this compound: `COc1ccc(-c2ccccc2C(=O)O)cc1`
100 % of control

What would you report for CC(=O)OC1C(C)OC(n2cnc3c(=O)[nH]cnc32)C1OC(C)=O (stereo unspecified) ?
101 % of control

Another compound: `COc1ccccc1CN1CCCN(Cc2ccccc2OC)C1c1c(O)ccc2ccccc12`
91 % of control

Moving on to the next compound: `O=C(C[N+]12CN3CN(CN(C3)C1)C2)c1ccc(Cl)cc1`
107 % of control

Would you mind doing `CCCCCCOc1ccc(C2=C(c3ccccc3)C(=O)C(c3ccccc3)=C2c2ccccc2)cc1` as well?
100 % of control

Check `COc1ccc(OC)c(NC(=O)c2cccc([N+](=O)[O-])c2)c1` too.
94 % of control

Ok, now `CSc1cc2c(cc1NC(C)=O)C(=O)c1cc(F)ccc1-2`
95 % of control

Could you do the same for CC1([N+](=O)[O-])COP(=O)(Nc2ccc(Cl)cc2)OC1 (stereo unspecified) , please?
98 % of control

And what about the compound O=C(OCC(OC(=O)c1ccccc1)C(OC(=O)c1ccccc1)C(OC(=O)c1ccccc1)C(SCc1ccccc1)SCc1ccccc1)c1ccccc1 (stereo unspecified) ?
95 % of control

# repeat for `CC(CS)CS`
95 % of control

Now the same for `S=C(Nc1ccccn1)Nc1ccccn1`
92 % of control

Then `CN(C)c1ccc(/C=C/c2ccnc3ccccc23)cc1` ?
106 % of control

Try CC(N)(CCCC(=O)O)C(=O)O (stereo unspecified) next.
95 % of control

Same again, this time with `CC(=O)Oc1ccc[nH]c1=O`
103 % of control

How about this compound: `C#CCOC(=O)Nc1ccc(C)cc1`
118 % of control

Then `Nc1ccc2c(c1)[nH]c(=O)c1cc(Br)ccc12` ?
102 % of control

Further, for `COc1ccc(C(=O)c2cc(Br)ccc2O)cc1` ?
98 % of control

Now give it for `CCCCC(=O)N/N=C/c1cccc(OC)c1OC` too.
101 % of control

Consider next the compound `CCCCC(O)(C(C)C)C(C)C` in the same way.
98 % of control

Would you mind doing `COc1cc(N(CCCl)CCCl)c(OC)cc1C=Nc1cccc(F)c1` as well?
153 % of control

Here is the next compound: NC(Cc1ccccc1)C(=O)O (stereo unspecified)
93 % of control

Also check `NC(=O)N/N=C/Cc1ccc2c(c1)OCO2`
92 % of control

// data source = PubChem BioAssay AID248
